assayed_target: human cannabinoid type-1 receptor (hCB1) (Homo sapiens, UniProt P21554)
Construct: expressed in transfected cells
Sequence (P21554 whole entry): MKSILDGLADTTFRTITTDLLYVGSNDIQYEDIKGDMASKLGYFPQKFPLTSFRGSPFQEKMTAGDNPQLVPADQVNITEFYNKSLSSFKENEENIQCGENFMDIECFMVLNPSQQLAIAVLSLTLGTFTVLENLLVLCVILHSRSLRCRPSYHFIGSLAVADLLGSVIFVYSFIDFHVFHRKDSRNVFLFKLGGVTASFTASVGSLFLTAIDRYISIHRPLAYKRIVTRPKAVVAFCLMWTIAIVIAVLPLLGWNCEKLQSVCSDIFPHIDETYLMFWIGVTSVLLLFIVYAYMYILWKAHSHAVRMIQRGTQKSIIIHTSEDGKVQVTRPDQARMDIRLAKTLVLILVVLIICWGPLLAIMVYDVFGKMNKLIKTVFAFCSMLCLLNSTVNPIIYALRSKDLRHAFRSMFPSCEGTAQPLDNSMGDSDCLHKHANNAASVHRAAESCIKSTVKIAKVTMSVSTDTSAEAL
Format: cell-based
test_settings: probe agonist THC (494 nM, EC80); cells treated for 5 min; read-out: IC50 on ERK phosphorylation
measured_attribute: IC50 (nM)

• CCc1c(C(=O)NCCc2ccc(N3CCCCC3)cc2)[nH]c2ccc(Cl)cc12 = 417

====

assayed_target: human cannabinoid type-1 receptor (hCB1) (Homo sapiens, UniProt P21554)
Construct: expressed in transfected cells
Assay type: cell-based
test_settings: read-out: IC50 on ERK phosphorylation
measured_attribute: IC50 (nM)

* CCc1c(C(=O)NCCc2ccc(N3CCCCC3)cc2)[nH]c2ccc(Cl)cc12 [Org27569] | 165

====

assayed_target: human cannabinoid type-1 receptor (hCB1) (Homo sapiens, UniProt P21554)
Construct: expressed in transfected cells
Format: cell-based
test_settings: no probe agonist (alone, basal ERK phosphorylation); cells treated for 20 min
measured_attribute: IC50 (nM)

- CCc1c(C(=O)NCCc2ccc(N3CCCCC3)cc2)[nH]c2ccc(Cl)cc12 [Org27569]: 139
